measured.on: rNTS2 receptor (Rattus norvegicus, UniProt Q63384)
Construct: expressed in transfected cells; host or cells: DRG-F11 cells, transient transfection, membranes
Sequence (Q63384 whole entry): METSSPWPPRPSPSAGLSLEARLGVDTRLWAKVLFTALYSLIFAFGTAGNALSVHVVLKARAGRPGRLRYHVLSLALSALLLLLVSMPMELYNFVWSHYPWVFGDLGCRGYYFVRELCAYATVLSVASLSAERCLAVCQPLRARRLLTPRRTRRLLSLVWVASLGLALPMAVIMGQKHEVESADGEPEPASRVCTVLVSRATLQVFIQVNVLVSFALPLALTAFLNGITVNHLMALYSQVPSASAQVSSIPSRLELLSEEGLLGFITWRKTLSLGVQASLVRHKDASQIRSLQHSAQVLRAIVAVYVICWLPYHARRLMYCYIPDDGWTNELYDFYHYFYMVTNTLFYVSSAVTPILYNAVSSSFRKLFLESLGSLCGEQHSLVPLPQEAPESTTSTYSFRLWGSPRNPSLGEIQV
assay.method.text: Competitive radioligand binding assay on the rNTS2 receptor
test.parameters: 1 μM macrocycle dose; read-out: NTS2 % displ at 1 μM (radiolabeled neurotensin displaced)
# reported inhibition at 1 µM; entries follow
Write the value in % as a bare number.

| molecule | inhibition at 1 µM, % |
| --- | --- |
| CCC(C)[C@H](NC(=O)[C@@H]1Cc2ccc(O)c(c2)CC=CCNCCCCCC(=O)N[C@@H](CCCCN)C(=O)N2CCC[C@H]2C(=O)N1)C(=O)N[C@@H](CC(C)C)C(=O)O (stereo partly drawn) [Compound 6, c[aminohex-6-enoic acid(All)KPY(All)]IL] | 93 |

INPUT: What value of measured inhibition at 1 µM is listed for CCC(C)[C@H](NC(=O)[C@@H]1Cc2ccc(O)c(c2)CC=CCNCCC[C@H](N)C(=O)N[C@@H](CCCCN)C(=O)N2CCC[C@H]2C(=O)N1)C(=O)N[C@@H](CC(C)C)C(=O)O (stereo partly drawn) [Compound 7, c[Orn(All)KPY(All)]IL] ?
OUTPUT: 66

INPUT: What value of measured inhibition at 1 µM is listed for CCC(C)[C@H](NC(=O)[C@@H]1Cc2ccc(O)c(c2)CC=CCCNCCCC[C@H](N)C(=O)N[C@@H](CCCCN)C(=O)N2CCC[C@H]2C(=O)N1)C(=O)N[C@@H](CC(C)C)C(=O)O (stereo partly drawn) [Compound 9, c[K(butenyl)KPY(All)]IL] ?
OUTPUT: 104

INPUT: What value of measured inhibition at 1 µM is listed for CCC(C)[C@H](NC(=O)[C@@H]1Cc2ccc(O)c(c2)CC=CCN(S(=O)(=O)c2ccccc2[N+](=O)[O-])CCCC[C@H](N)C(=O)N[C@@H](CCCCN)C(=O)N2CCC[C@H]2C(=O)N1)C(=O)N[C@@H](CC(C)C)C(=O)O (stereo partly drawn) ?
OUTPUT: 96

INPUT: What value of measured inhibition at 1 µM is listed for CCC(C)[C@H](NC(=O)[C@@H]1Cc2ccc(O)c(c2)CC=CCCCCCCC(=O)N[C@@H](CCCNC(=N)N)C(=O)N2CCC[C@H]2C(=O)N1)C(=O)N[C@@H](CC(C)C)C(=O)O (stereo partly drawn) [Compound 11, c[nonenoic acid-RPY(All)]IL] ?
OUTPUT: 78

INPUT: What value of measured inhibition at 1 µM is listed for CCC(C)[C@H](NC(=O)[C@@H]1Cc2ccc(O)c(c2)CC=CCCCCCC[C@](C)(N)C(=O)N[C@@H](CCCCN)C(=O)N2CCC[C@H]2C(=O)N1)C(=O)N[C@@H](CC(C)C)C(=O)O (stereo partly drawn) [Compound 3, c[OctenylAKPY(All)]IL] ?
OUTPUT: 96
